Target: CRF1 receptors (Homo sapiens, UniProt P34998)
Construct: endogenous in cells; host or cells: IMR-32 cells, transformed with 2.5 µM 5'-bromo-2'-deoxyuridine for 10 days; membrane preparation
Sequence (P34998 24-415): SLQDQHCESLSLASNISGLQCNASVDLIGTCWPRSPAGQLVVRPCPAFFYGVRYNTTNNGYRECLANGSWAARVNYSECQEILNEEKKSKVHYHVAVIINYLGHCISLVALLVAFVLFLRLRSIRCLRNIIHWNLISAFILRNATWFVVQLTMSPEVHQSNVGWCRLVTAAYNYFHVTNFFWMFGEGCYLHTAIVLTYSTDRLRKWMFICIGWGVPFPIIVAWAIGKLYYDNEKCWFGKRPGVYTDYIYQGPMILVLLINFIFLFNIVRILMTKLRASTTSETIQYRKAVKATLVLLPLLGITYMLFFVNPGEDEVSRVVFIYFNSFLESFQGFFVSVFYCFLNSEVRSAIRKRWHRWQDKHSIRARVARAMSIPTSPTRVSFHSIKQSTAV
Experiment: CRF1 receptor radioligand binding assay ([125I]-oCRF competition, IMR-32 cell membranes)
Details: IMR-32 cell membranes, [125I]-oCRF 100 pM; read-out: Ki (CRF-1R)
Experimental: CRF1 receptor antagonists, by occupying the same receptors, blocks the accessibility of the receptors to CRF, a hypothalamic factor mediating body's responses to physiological and psychological stress. […] Radioligand binding assays. […] IC50 values for oCRF and test compounds were calculated by nonlinear regression using a one-site binding curve (GraphPad Prism).
pKi: −log10 of the molar value.
result type: pKi

Give reported pKi value for CCCN(Cc1c(C(F)(F)F)nc2n(-c3c(C)cc(C)cc3C)c3ncccc3n12)CC1CCC1
> 7.00

For the compound CCN(Cc1c(C(F)(F)F)nc2n(-c3c(C)cc(C)cc3C)c(Cl)cn12)CC1CC1 , give its reported pKi.
> 8.00

Provide one value: measured pKi of CCCN(CCC(F)(F)F)Cc1c(C(F)(F)F)nc2n1CCCN2c1c(C)cc(C)cc1C
> 6.00

Note down pKi recorded for CCCN(CCC(F)(F)F)C(=O)c1c(CC)nc2n1CCN2c1c(C)cc(C)cc1C
> 6.00

Please report the measured pKi for CCCN(CCc1ccccc1)Cc1c(C(F)(F)F)nc2n1CCCN2c1c(C)cc(C)cc1C
> 7.00

For the compound Cc1cc(C)c(-n2c3ccccc3n3c(CN(CCC(F)(F)F)CC4CC4)c(C(F)(F)F)nc23)c(C)c1 , give its measured pKi value.
> 7.00

Could you please provide reported pKi for Cc1cc(C)c(N2CCCn3c2nc(C(F)(F)F)c3CN(CC2CC2)CC(F)(F)F)c(Cl)c1 ? Thanks!
> 7.00

----------
Give measured pKi for each item. Keep answers brief.
biological target: CRF1 receptors (Homo sapiens); construct: endogenous in cells; host or cells: IMR-32 cells, transformed with 2.5 µM 5'-bromo-2'-deoxyuridine for 10 days; membrane preparation; assay: CRF1 receptor radioligand binding assay ([125I]-oCRF competition, IMR-32 cell membranes); details: IMR-32 cell membranes, [125I]-oCRF 100 pM; read-out: Ki (CRF-1R)
pKi: −log10 of the molar value.

Tell me pKi of Cc1cc(C)c(N2CCCn3c2nc(C(F)(F)F)c3CN(CC2CC2)CC(F)(F)C(F)(F)F)c(C)c1 [Example 74] when tested on CRF1 receptors (Homo sapiens).
> 7.00

Specify pKi for Cc1cc(C)c(N2CCCn3c2nc(C(F)(F)F)c3CN(CCC2CC2)CC(F)(F)F)c(Cl)c1 [Example 126] , system CRF1 receptors (Homo sapiens).
> 6.00

Provide pKi, recorded with CRF1 receptors (Homo sapiens), of Cc1cc(C)c(N2CCCn3c2nc(C(F)(F)F)c3CN(CCC(F)(F)F)Cc2ccc(F)cc2)c(C)c1 [Example 91]
> 6.00

Look up and report pKi, with CRF1 receptors (Homo sapiens) as system, for CCCN(CCC(F)(F)F)Cc1c(C(F)(F)F)nc2n(-c3c(C)cc(C)cc3C)c(Cl)cn12 [Example 321]
> 8.00

Answer with pKi of CCCN(Cc1ccccc1)C(=O)c1c(CC)nc2n1CCN2c1c(C)cc(C)cc1C [Example 25] measured for CRF1 receptors (Homo sapiens).
> 5.00

Consider the compound CCCN(CCC)Cc1c(C(F)(F)F)nc2n(-c3c(C)cc(C)cc3C)c(Cl)cn12 [Example 344] tested on CRF1 receptors (Homo sapiens); state its pKi.
> 7.00

Quote pKi with test system CRF1 receptors (Homo sapiens) for Cc1cc(C)c(N2CCCn3c2nc(C(F)(F)F)c3CN(CCC(F)(F)F)Cc2ccc(Cl)cc2)c(Cl)c1 [Example 128]
> 6.00

Param request: pKi | system CRF1 receptors (Homo sapiens) | item CC(C)c1ccc(-n2c3ccccc3n3c(CN(CCC(F)(F)F)Cc4ccc(F)cc4)c(C(F)(F)F)nc23)c(Br)c1 [Example 199]
> 5.00

Fill in pKi for CCCN(CC1CC1)C(=O)c1c(C)nc2n(-c3c(C)cc(C)cc3C)c(Cl)cn12 [Example 283] tested with CRF1 receptors (Homo sapiens).
> 7.00

----------
molecular target: CRF1 receptors (Homo sapiens, UniProt P34998); construct: endogenous in cells; host or cells: IMR-32 cells, transformed with 2.5 µM 5'-bromo-2'-deoxyuridine for 10 days; membrane preparation; experiment: CRF1 receptor radioligand binding assay ([125I]-oCRF competition, IMR-32 cell membranes); conditions: IMR-32 cell membranes, [125I]-oCRF 100 pM; read-out: Ki (CRF-1R)
pKi: −log10 of the molar value.
result type: pKi

Fill in pKi for record CCc1nc2n(-c3c(C)cc(C)cc3C)c(Cl)cn2c1C(=O)N(CC)Cc1ccncc1
> 6.00

Give reported pKi value for CC(C)c1ccc(-n2c3ccccc3n3c(CN(CCC4CC4)CC(F)(F)F)c(C(F)(F)F)nc23)c(Br)c1
> 5.00

Read the entry CCN(CCc1ccccc1)Cc1c(C(F)(F)F)nc2n1CCCN2c1c(C)cc(C)cc1C and write its reported pKi.
> 6.00

Supply pKi value. Item: CC(C)c1ccc(-n2c3ccccc3n3c(CN(CC4CCC4)CC(F)(F)F)c(C(F)(F)F)nc23)c(Br)c1
> 6.00

Identify the reported pKi for the following entry. CC(C)c1ccc(-n2c3ccccc3n3c(CN(CC4CC4)CC(F)(F)F)c(C(F)(F)F)nc23)c(Br)c1
> 7.00

Please list pKi recorded for the compound CCCN(CC(F)(F)F)C(=O)c1c(CC)nc2n1CCN2c1ccc(C(C)C)cc1Br
> 6.00

# return recorded pKi for entry C=CCN(CC=C)Cc1c(C(F)(F)F)nc2n(-c3ccc(Cl)cc3Cl)c3ccccc3n12
> 5.00

State its pKi for this compound: CCCN(CCC1CC1)Cc1c(C(F)(F)F)nc2n(-c3c(C)cc(C)cc3C)c3ncccc3n12
> 6.00

Read off the recorded pKi for CCCN(CCC)C(=O)c1c(CC)nc2n1CCN2c1c(C)cc(C)cc1C
> 6.00

----------
target: CRF1 receptors (Homo sapiens, UniProt P34998); construct: endogenous in cells; host or cells: IMR-32 cells, transformed with 2.5 µM 5'-bromo-2'-deoxyuridine for 10 days; membrane preparation; assay: CRF1 receptor radioligand binding assay ([125I]-oCRF competition, IMR-32 cell membranes); details: IMR-32 cell membranes, [125I]-oCRF 100 pM; read-out: Ki (CRF-1R)
For each entry below, report its Ki value.

Write down Ki measured for item CCCN(Cc1ccc(F)cc1)Cc1c(C(F)(F)F)nc2n1CCCN2c1c(C)cc(C)cc1Cl [Example 132]
< 1000 nM

Quickly give me recorded Ki for Cc1cc(C)c(N2CCCn3c2nc(C(F)(F)F)c3CN2CCCC2Cc2ccccc2)c(C)c1 (stereo not shown) [Example 347]
< 10 nM

Give the measured Ki for CCCN(CC1CC1)C(=O)c1c(CC)nc2n(-c3c(C)cc(C)cc3C)c3ccccc3n12 [Example 141]
< 1000 nM

Look up Ki of CCc1nc2n(c1C(=O)N(CC1CC1)CC(F)(F)F)CCN2c1c(C)cc(C)cc1Cl [Example 27] and report it.
< 100 nM

Identify Ki associated with the compound CCCN(Cc1c(C(F)(F)F)nc2n1CCCN2c1c(C)cc(C)cc1C)CC(F)(F)C(F)(F)F [Example 80]
< 1000 nM

Could you please provide reported Ki for CCc1nc2n(c1C(=O)N(CC1CC1)CC(F)(F)C(F)(F)F)CCN2c1c(C)cc(C)cc1C [Example 7] ? Thanks!
< 100 nM

Name the recorded Ki of the compound listed here: C=C(C)CN(CC)Cc1c(C(F)(F)F)nc2n(-c3c(C)cc(C)cc3C)c(Cl)cn12 [Example 312]
< 100 nM

Could you please provide reported Ki for CCN(CCc1ccccc1)Cc1c(C(F)(F)F)nc2n(-c3ccc(C(C)C)cc3Br)c3ccccc3n12 [Example 196] ? Thanks!
< 1000 nM

Supply recorded Ki for CCCN(Cc1ccccc1)Cc1c(C(F)(F)F)nc2n(-c3ccc(C(C)C)cc3Br)c3ccccc3n12 [Example 209] here.
< 10000 nM

Answer with the recorded Ki of CCc1nc2n(c1C(=O)N(CC1CC1)CC(F)(F)F)CCN2c1c(C)cc(C)cc1Br [Example 44] only.
< 100 nM

Taken from patent US7125990B2.
